test system: RXF 393 renal; test: NCI-60 one-dose screen, 48 h (100 = growth as untreated, 0 = no growth, -100 = all killed); conditions: 10 µM
This is part of a sample that, as a whole, favours compounds with a hit. Of some 83,000 tested, about 20% had one in any assay.
Class label 1: growth at least 60%. Class label 0: growth below 60%.

Reported growth at or above 60%? COc1c(C)c(C)c(OC)c2c1[nH]c(=O)c1c3cccnc3cn21
label 1

Reported growth at or above 60%? Oc1cc(O)c(Br)cc1Br
label 1

Reported growth at or above 60%? C#Cc1ccc(-n2c(/C=C/c3cc(OC)c(OC)c(OC)c3)nc3ncccc3c2=O)cc1
label 0

Reported growth at or above 60%? CCCc1c(CC)c(=N)c2ccccc2n1C
label 0

Reported growth at or above 60%? CCn1nc(-c2ccc(C(=O)OC)cc2)nc2c(=O)n(C)c(=O)nc1-2
label 0

Reported growth at or above 60%? O=C(COCc1c(-c2ccccc2)no[n+]1[O-])Nc1nc(-c2ccc(Cl)cc2)cs1
label 1

Reported growth at or above 60%? CCOCC[P+](c1ccccc1)(c1ccccc1)c1ccccc1
label 1

Reported growth at or above 60%? CCCCCCCCCCCCCCCCn1cc[n+](C)c1
label 0

Reported growth at or above 60%? COc1cc(/C=C/C(=O)c2cc(-c3ccc(F)cc3)ccc2O)cc(OC)c1OC
label 1

Reported growth at or above 60%? CC(=O)N(O)c1ccc(/C=C/c2ccccc2)cc1
label 0

Reported growth at or above 60%? CS(=O)(=O)Nc1ccc(Nc2c3ccccc3nc3cc(Cl)ccc23)cc1
label 0

Reported growth at or above 60%? Oc1[nH]c2ccccc2c1/C=c1/cc2c(c(-c3ccc(C(F)(F)F)cc3)n1)=Nc1ccccc1-2
label 0

Reported growth at or above 60%? O=C(N/N=c1/ccoc2cccnc12)N1CCN(c2ncccn2)CC1
label 1

Reported growth at or above 60%? Cc1cc(/C=C2\SC(=Nc3ccccc3)N(C3CCCC3)C2=O)c(C)n1-c1ccc(Cl)cc1
label 0

Reported growth at or above 60%? COc1cc(CSc2nc3ccc(Cl)cc3c(=O)n2-c2ccccc2)cc(OC)c1OC
label 1

Reported growth at or above 60%? CN1/C(=C\C(I)C(I)C2=[N+](C)c3ccccc3C2(C)C)C(C)(C)c2ccccc21 (stereo not drawn)
label 0

Reported growth at or above 60%? COc1cccc(-c2nnc(COc3ccc(-c4nc5ccccc5[nH]4)cc3OC)o2)c1
label 1

Reported growth at or above 60%? C=CCn1ccc(=O)nc1SC
label 1

Reported growth at or above 60%? FC(F)(F)c1ccc(-c2ncc(-c3ccc(C(F)(F)F)cc3)c(NCc3cc(C(F)(F)F)cc(C(F)(F)F)c3)n2)cc1
label 1

Reported growth at or above 60%? C[N+]1(CC2CO2)CCCCCC1 (stereo not drawn)
label 1

Reported growth at or above 60%? N#CCC1CCCC1
label 1

Reported growth at or above 60%? O=C(O)c1cc(C(F)(F)F)cc(C(F)(F)F)c1
label 1

Reported growth at or above 60%? NC1CCC(Nc2nc(NCc3cc(Cl)ccc3O)c3ncn(C4CCCC4)c3n2)CC1 (stereo not drawn)
label 0
